Hello, the source for this data is the supplement of paper PMC6555819, in case you need it.

Tested on: RXRa DBDmut IVT, anti-RXR (DBD mutation: RXRa K156A/R161A, NR concentration 90 nM)
Experiment: PBM binding z-score (relative to random genomic background probes); higher = stronger binding; sequences stand for … in GC…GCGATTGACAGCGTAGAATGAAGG
Note to self: values exactly at 0.9 are 1. So PBM binding z-score at or above 0.9 is 1, below is -1.

Field: example entries. Status: answers known.
residue_string: TCATATAGGTAAACAGGTGAAAGCCCGTAAGTTA
measured_target: RXRa DBDmut IVT, anti-RXR (DBD mutation: RXRa K156A/R161A, NR concentration 90 nM)
assigned_label: 1
//
residue_string: ATCTCTAGGTAACAAGTGCAGTGAAAGAGAGGAC
measured_target: RXRa DBDmut IVT, anti-RXR (DBD mutation: RXRa K156A/R161A, NR concentration 90 nM)
assigned_label: -1
//
residue_string: TCTCGGACGACACGAAGGTCAGAGCTTTCCAGAG
measured_target: RXRa DBDmut IVT, anti-RXR (DBD mutation: RXRa K156A/R161A, NR concentration 90 nM)
assigned_label: -1

Req: Does the reported PBM binding z-score for AGTACGAGGGCAATGAGTTGATAGCACGGGTGGC fall at or above the 0.9 mark?
Resp: 1

Req: Does the reported PBM binding z-score for TCTTGTAGATCAATAGAGTTTAAGAAAGTGCGCT fall at or above the 0.9 mark?
Resp: -1

Req: Does the reported PBM binding z-score for CAAACTAGGTCAAAGGTCAAAGTGGAGCCAACCA fall at or above the 0.9 mark?
Resp: 1

Req: Does the reported PBM binding z-score for GCTAGCAGGCCATTTGGGTCACTCAATGACGGGC fall at or above the 0.9 mark?
Resp: -1

Req: Does the reported PBM binding z-score for CAATCTAGGTCAAGGTCAAAGTCGGTTTGTGCCA fall at or above the 0.9 mark?
Resp: 1

Req: Does the reported PBM binding z-score for AATACAGGGTCACTAGGCCATAGTAGGTACGAAT fall at or above the 0.9 mark?
Resp: 1

Req: Does the reported PBM binding z-score for GCGACTGGGGCAAAGCAGGTTCCCATAAGGTTGG fall at or above the 0.9 mark?
Resp: -1

Req: Does the reported PBM binding z-score for TTACCAAAGTGAAGGTCGTTGATCCCTCTGTAGA fall at or above the 0.9 mark?
Resp: -1

Req: Does the reported PBM binding z-score for GGAACGAGGGCAAGTTCATAGCAGAGTTTGATGG fall at or above the 0.9 mark?
Resp: 1

Req: Does the reported PBM binding z-score for TCTTGTAGATCAACAGGAGGTTAAGCAAGATCGA fall at or above the 0.9 mark?
Resp: -1

Req: Does the reported PBM binding z-score for ATCTCTAGGTAAAAGTTCAGTAAATCCCGAGGAT fall at or above the 0.9 mark?
Resp: 1

Req: Does the reported PBM binding z-score for CCATACGGGTCACTCCAGGTTATAGCATCGGAGT fall at or above the 0.9 mark?
Resp: 1
